I'd appreciate it if you could supply MIC90 values for the items below.
- Test system: Streptococcus pneumoniae
- assay_name: Antibacterial activity against Streptococcus pneumoniae by agar diffusion method
- Format: functional
One number for each entry, in µg/mL.

Guide cases for MIC90, answers given:
CO/N=C1\CN(c2nc3c(cc2F)c(=O)c(C(=O)O)cn3C2CC2)CC1CN (configuration not stated)
0.03
CCn1cc(C(=O)O)c(=O)c2cc(F)c(N3CCNC(C)C3)c(F)c21 (configuration not stated)
4
C[C@@H]1CN(c2c(F)c(N)c3c(=O)c(C(=O)O)cn(C4CC4)c3c2F)C[C@H](C)N1
0.5
COc1c(N2CCNC(C)C2)c(F)cc2c(=O)c(C(=O)O)cn(C3CC3)c12 (configuration not stated)
0.25
Cc1c(F)c(N2CCNC(C)C2)cc2c1c(=O)c(C(=O)O)cn2C1CC1 (configuration not stated)
0.25
N[C@@H]1[C@H]2CN(c3nc4c(cc3F)c(=O)c(C(=O)O)cn4-c3ccc(F)cc3F)C[C@@H]12
0.12
CCn1cc(C(=O)O)c(=O)c2cc(F)c(N3CCNCC3)nc21
64
C[C@H]1NCc2cc(-c3ccc4c(=O)c(C(=O)O)cn(C5CC5)c4c3OC(F)F)ccc21
0.12
CCn1cc(C(=O)O)c(=O)c2cc(F)c(N3CCNCC3)cc21
16
NC1CCN(c2c(F)cc3c(=O)c(C(=O)O)cn(C4CC4)c3c2Cl)C1 (configuration not stated)
0.12

Now consider the entry below.
Request: Retrieve MIC90 measured for CC1COc2c(N3CCN(C)CC3)c(F)cc3c(=O)c(C(=O)O)cn1c23 (configuration not stated) and print it.
Response: 2

----------
- assay_name: AUC in human at 0.32 g, po
- Format: ADME
- condition: in vivo
reported_endpoint: AUC (ng·h/mL)
Numbers only, in ng·h/mL.

Request: Fill in AUC for record CO/N=C1\CN(c2nc3c(cc2F)c(=O)c(C(=O)O)cn3C2CC2)CC1CN (stereo unspecified) [GEMIFLOXACIN]
Response: 9000

----------
- assay_name: Half life in human at 0.32 g, po
- Type: ADME
- condition: in vivo
reported_endpoint: half-life
Please answer in the form of a number followed by its unit of measurement.

Request: Answer with reported half-life of CO/N=C1\CN(c2nc3c(cc2F)c(=O)c(C(=O)O)cn3C2CC2)CC1CN (stereo unspecified)
Response: 7 h

----------
- assay_name: AUC in human at 0.75 g, po bid
- condition: in vivo
reported_endpoint: AUC
# output: number + unit

Request: Provide one value: measured AUC of `O=C(O)c1cn(C2CC2)c2cc(N3CCNCC3)c(F)cc2c1=O`
Response: 30000 ng·h/mL

----------
- assay_name: Cmax in human at 0.4 g, po
- Assay type: ADME
- Parameters: dose 0.4 g, route oral
- condition: in vivo
Use label 1 when the recorded Cmax is no lower than 4000 ng/mL; use label 0 when it is lower.

Solved entries:
COc1c(N2CCNC(C)C2)c(F)cc2c(=O)c(C(=O)O)cn(C3CC3)c12 (stereo not given)
label 0
C[C@@H]1CN(c2c(F)c(N)c3c(=O)c(C(=O)O)cn(C4CC4)c3c2F)C[C@H](C)N1
label 0
Cc1c(F)c(N2CCNC(C)C2)cc2c1c(=O)c(C(=O)O)cn2C1CC1 (stereo not given)
label 0
C[C@H]1NCc2cc(-c3ccc4c(=O)c(C(=O)O)cn(C5CC5)c4c3OC(F)F)ccc21
label 1

Shifting focus to the compound that follows.
Request: Determine whether this compound has Cmax no lower than 4000 ng/mL: CCn1cc(C(=O)O)c(=O)c2cc(F)c(N3CCNC(C)C3)c(F)c21 (stereo not given)
Response: label 0

----------
- assay_name: Protein binding in human at 0.32 g, po
- Type: ADME
- condition: in vivo, read-out: PB (converted)
reported_endpoint: fraction unbound

Request: Find the measured fraction unbound of CO/N=C1\CN(c2nc3c(cc2F)c(=O)c(C(=O)O)cn3C2CC2)CC1CN (stereo unspecified) and report it.
Response: 0.4

----------
- assay_name: AUC in human at 0.4 g, po by HPLC analysis
- Format: ADME, organism-based
- condition: in vivo
reported_endpoint: AUC

Request: State its AUC: COc1c(N2C[C@@H]3CCCN[C@@H]3C2)c(F)cc2c(=O)c(C(=O)O)cn(C3CC3)c12 [MOXIFLOXACIN]
Response: 30000 ng·h/mL

----------
- assay_name: AUC in human at 0.3 g, po
- Type: ADME
- condition: in vivo
reported_endpoint: AUC
Provide the measurement as a number trailed by its unit.

Request: # return recorded AUC for entry N[C@@H]1[C@H]2CN(c3nc4c(cc3F)c(=O)c(C(=O)O)cn4-c3ccc(F)cc3F)C[C@@H]12 [TROVAFLOXACIN]
Response: 40000 ng·h/mL

----------
- assay_name: Protein binding in human at 0.2 g, po bid
- Format: ADME, organism-based
- condition: in vivo, read-out: PB (converted)
reported_endpoint: fraction unbound
Give bare numbers.

Request: Consider the compound NC1CCN(c2c(F)cc3c(=O)c(C(=O)O)cn(C4CC4)c3c2Cl)C1 (stereo unspecified) . State its measured fraction unbound.
Response: 0.6

----------
- assay_name: Toxicity in human assessed as CNS effect by measuring dizziness
reported_endpoint: Activity

Request: Please give the documented Activity of `N[C@@H]1[C@H]2CN(c3nc4c(cc3F)c(=O)c(C(=O)O)cn4-c3ccc(F)cc3F)C[C@@H]12`
Response: 2 to 11%

----------
- assay_name: Protein binding in human at 0.4 g, po
- Type: ADME
- condition: in vivo, read-out: PB (converted)
reported_endpoint: fraction unbound
One number for each entry.

Recorded fraction unbound, per entry:
COc1c(N2CCNC(C)C2)c(F)cc2c(=O)c(C(=O)O)cn(C3CC3)c12 (centres undefined)
0.8
C[C@@H]1CN(c2c(F)c(N)c3c(=O)c(C(=O)O)cn(C4CC4)c3c2F)C[C@H](C)N1
0.6
C[C@H]1NCc2cc(-c3ccc4c(=O)c(C(=O)O)cn(C5CC5)c4c3OC(F)F)ccc21
0.13

Switching to the query record.
Request: Look up fraction unbound of CCn1cc(C(=O)O)c(=O)c2cc(F)c(N3CCNC(C)C3)c(F)c21 (centres undefined) and report it.
Response: 0.9

----------
- assay_name: Cmax in human at 0.4 g, po by HPLC analysis
- Type: ADME, organism-based
- Design: dose 0.4 g, route oral
- condition: in vivo
reported_endpoint: Cmax (ng/mL)
Answers are plain numbers, in ng/mL.

Request: Give the reported Cmax for this compound. `COc1c(N2C[C@@H]3CCCN[C@@H]3C2)c(F)cc2c(=O)c(C(=O)O)cn(C3CC3)c12`
Response: 3100

----------
- Tested on: Bacteroides fragilis
- assay_name: Antibacterial activity against Bacteroides fragilis by agar diffusion method
- Assay type: functional
reported_endpoint: MIC90

Below, each entry is followed by its recorded MIC90 result.
CCn1cc(C(=O)O)c(=O)c2cc(F)c(N3CCNCC3)cc21 [NORFLOXACIN]
> 64 µg/mL
CCn1cc(C(=O)O)c(=O)c2cc(F)c(N3CCNCC3)nc21 [ENOXACIN]
> 64 µg/mL

Continue with the next molecule.
Request: Write MIC90 of CCn1cc(C(=O)O)c(=O)c2ccc(C)nc21 [NALIDIXIC ACID] ; system used: Bacteroides fragilis
Response: > 64 µg/mL

----------
- assay_name: Half life in human at 0.4 g, po
- Format: ADME
- condition: in vivo
reported_endpoint: half-life

Field: example entries. Status: answers known.
CCn1cc(C(=O)O)c(=O)c2cc(F)c(N3CCNC(C)C3)c(F)c21 (centres undefined) [LOMEFLOXACIN]
8 h
C[C@H]1NCc2cc(-c3ccc4c(=O)c(C(=O)O)cn(C5CC5)c4c3OC(F)F)ccc21 [GARENOXACIN]
15 h
Cc1c(F)c(N2CCNC(C)C2)cc2c1c(=O)c(C(=O)O)cn2C1CC1 (centres undefined) [GREPAFLOXACIN]
14 h

Next, consider the following compound.
Request: Write down half-life measured for item COc1c(N2CCNC(C)C2)c(F)cc2c(=O)c(C(=O)O)cn(C3CC3)c12 (centres undefined) [GATIFLOXACIN]
Response: 12 h
